Target: human IgG2 antibody (#I5404; Sigma-Aldrich) (human)
Test: ELISA
MEASURED METRIC: OD
Lab note: record just the number, no unit beside it.

binder="R3-75 (scFv, not shown: small tags and cut ends) scFv: QSVKESGGRLVTPGTPLTLTCTVSGIDLSSNAMSWVRQAPGEGLEWIGTISTVGKTYFASWAKGRFTISKTSTTVDLRITSPTTEDTATYFCATRYDSYGYAYNYWFGTLWGPGTLVTVTSGGGGSGGGGSGGGGSELDLTQTPPSVSGAVGGTVTIKCQASENINSELAWYQQKPGQRPKLLIYDASKLASGVPSRFSGSGSGTEYTLTISGMQCDDAATYYCQSTYYDGNYVYAFGGGTEVDVTRS" measured=3.04
binder="R3-26 (scFv, not shown: small tags and cut ends) scFv: QEQLVESGGGLVKPGGTLTLTCTVSGIDLSSYAMSWVRQVPGKGLEWIGIIGSGGGTAYANWAKGRFTISKTSSTTVDLKMTSLTTEDTATYFCATDYGIYGYAYGHLWGPGTLVTVTSGGGGSGGGGSGGGGSELVMTQTASPVSAAVGGTVTIKCQASQSISTALAWYQQRPGQPPKLLIYDASTLASGVSSRFKGSGSGTEFTLTISDLECADAATYYCQTYFGSDTDNAFGEGTEVEITGS" measured=3.04
binder="IgA R3-1 (scFv, not shown: small tags and cut ends) scFv: QSVKESGGRLVTPGTPLTLTCTVSGIDLSSNAMSWVRQAPGEGLEWIGTISTVGKTYFASWAKGRFTISKTSTTVDLRITSPTTEDTATYFCATRYDSYGYAYNYWFGTLWGPGTLVTVTSGGGGSGGGGSGGGGSELDLTQTPPSVSGAVGGTVTIKCQASENINSELAWYQQKPGQRPKLLIYDASKLASGVPSRFSGSGSGTEYTLTISGMQCDDAATYYCQSTYYDGNYVYAFGGGTEVDVTRS" measured=3.07

**Q:** What OD value was documented for this binder, R3-8 (scFv, not shown: small tags and cut ends) scFv: QSLEESGGRLVTPGTPLTLTCTVSGIDLSSNAMTWVRQAPGEGLEWIGTISTGGSTYFASWAKGRFTISKTSTTVDLKITSPTTEDTATYFCATRYDSYGYAYNYWFGTLWGPGTLVTVTSGGGGSGGGGSGGGGSELVMTQTAASVSEPVGGTVTINCQASQSISDELAWYQQKPGQRPKLLIYDASDLASGVPSRFSGSGSGTEFTLTISGVQCDDAATYYCQSAYYDGRYVYAFGGGTEVEVTGS ?
**A:** 3.02
